Please go through the items and note down their pIC50.
Target: UniProt P47712
Sequence (P47712 1-749): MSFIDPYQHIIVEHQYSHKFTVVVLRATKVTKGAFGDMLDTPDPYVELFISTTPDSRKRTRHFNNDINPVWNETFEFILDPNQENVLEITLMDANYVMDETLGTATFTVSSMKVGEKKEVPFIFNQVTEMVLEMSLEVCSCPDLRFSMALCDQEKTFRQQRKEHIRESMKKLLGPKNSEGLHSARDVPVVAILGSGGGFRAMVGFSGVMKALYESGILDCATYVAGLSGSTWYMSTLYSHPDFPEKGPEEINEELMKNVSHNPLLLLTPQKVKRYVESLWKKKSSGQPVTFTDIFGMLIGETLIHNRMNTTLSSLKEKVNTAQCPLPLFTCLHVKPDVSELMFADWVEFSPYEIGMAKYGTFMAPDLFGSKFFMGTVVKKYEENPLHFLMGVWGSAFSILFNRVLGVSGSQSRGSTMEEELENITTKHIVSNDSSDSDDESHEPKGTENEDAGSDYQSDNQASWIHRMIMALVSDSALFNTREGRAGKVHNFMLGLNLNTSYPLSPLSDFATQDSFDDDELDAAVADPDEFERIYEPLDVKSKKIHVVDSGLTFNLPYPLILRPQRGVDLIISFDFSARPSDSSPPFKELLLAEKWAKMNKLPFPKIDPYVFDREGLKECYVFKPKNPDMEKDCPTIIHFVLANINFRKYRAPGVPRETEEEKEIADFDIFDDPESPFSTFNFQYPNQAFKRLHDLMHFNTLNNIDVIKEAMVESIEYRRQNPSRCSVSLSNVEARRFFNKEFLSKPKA
One number for each entry, as −log10 of the molar value.

Consider the following illustrative entries.
# compound, observed
rows = [
    ("O=C1NC(=O)/C(=C/c2ccc(C(=O)NC[C@@H]3C[C@H](OCc4ccc(F)cc4F)CN3C(=O)c3ccc(Cn4sccc4=O)cc3)cc2)S1 [Compound H-8]", 5.49),
    ("O=C1NC(=S)S/C1=C\\c1ccc(NC(=O)[C@@H]2CCCN2C(=O)Cc2ccc(Br)cc2)cc1 [Compound L-1]", 5.28),
    ("O=C1NC(=O)C(=Cc2ccc(OC[C@@H]3C[C@H](SCc4ccccc4)CN3C(=O)c3ccccc3)cc2)S1 [Compound E-5]", 5.11),
    ("CC(C)(C)[Si](C)(C)N1C(=O)C[C@H]1C(=O)N1C[C@@H](OC(c2ccccc2)c2ccccc2)C[C@H]1CNC(=O)c1ccc(/C=C2\\SC(=O)NC2=O)cc1 [Compound H-14]", 5.09),
    ("CC(=O)Nc1c(Cl)cc(S(=O)(=O)N2C[C@@H](SCc3ccccc3)C[C@H]2C(=O)Nc2ccc(/C=C3\\SC(=S)NC3=O)cc2)cc1Cl [Compound A-37]", 5.80),
]

In the following, a different compound is considered.
In: Consider the compound CS[C@H]1C[C@@H](C(=O)Nc2ccc(/C=C3\SC(=O)NC3=O)cc2)N(S(=O)(=O)c2ccc(-c3ccccc3)cc2)C1 [Compound A-44] and give its recorded pIC50.
Out: 5.13
